system: Amaranthus retroflexus; assay: Post-emergence herbicidal activity, glasshouse pot test; format: in vivo; set-up: key: 0 = no damage to plant, 5 = total damage to plant; conditions: Application post-emergence, rate 1000 g/ha, evaluated after 13 days
attribute measured: AMARE herbicidal damage score

Give reported AMARE herbicidal damage score value for COC(=O)c1cnc(N2C(=O)C(OC)=C(C)C2O)cc1Cl (stereo not shown) [AI21]
5

Give reported AMARE herbicidal damage score value for CC1=C(Cl)C(=O)N(c2ccc(F)cn2)C1O (stereo not shown) [AF67]
5

Give reported AMARE herbicidal damage score value for CC#Cc1nnc(N2C(=O)C(OC)=C(C)C2O)cc1C(C)(F)F (stereo not shown) [BI18]
5

Give reported AMARE herbicidal damage score value for COC1=C(C)C(O)N(c2cc(C(F)(F)F)c(Cl)nn2)C1=O (stereo not shown) [BI9]
5

Give reported AMARE herbicidal damage score value for CC1=C(Cl)C(=O)N(c2cc(F)ccn2)C1O (stereo not shown) [AF39]
5

More entries:
Give reported AMARE herbicidal damage score value for CC1=C(Cl)C(=O)N(c2cc(C#N)ncn2)C1O (stereo not shown) [CF13]
2

Give reported AMARE herbicidal damage score value for CCN(CC)C(=O)c1cnc(N2C(=O)C(OC)=C(C)C2O)cc1C(F)(F)F (stereo not shown) [AI9]
5

Give reported AMARE herbicidal damage score value for COC1=C(C)C(O)N(c2cc(C(C)C)c(Cl)nn2)C1=O (stereo not shown) [BI28]
5

----------
test system: Abutilon theophrasti; experiment: Pre-emergence herbicidal activity, glasshouse pot test; assay type: in vivo; details: pre-emergence spray, rate 1000 g/ha, evaluated after 13 days, scale 0-5
Catalogue of compounds with associated ABUTH damage score, application pre-emergence

Tell me its ABUTH damage score, application pre-emergence on Abutilon theophrasti: COC1=C(C)C(O)N(c2cc(C(C)(C)C#N)ncn2)C1=O (centres unmarked) [CI6]
5

More entries:
Tell me its ABUTH damage score, application pre-emergence on Abutilon theophrasti: COC1=C(C)C(O)N(c2cc(C(C)(F)F)c(-c3ccc(C)c(F)c3)nn2)C1=O (centres unmarked) [BI20]
0

Tell me its ABUTH damage score, application pre-emergence on Abutilon theophrasti: CC1=C(Cl)C(=O)N(c2cc(C)ccn2)C1O (centres unmarked) [AF41]
5

Tell me its ABUTH damage score, application pre-emergence on Abutilon theophrasti: COC1=C(C)C(O)N(c2cc(C)c(C(=O)NC3(C#N)CC3)cn2)C1=O (centres unmarked) [AI34]
1

Tell me its ABUTH damage score, application pre-emergence on Abutilon theophrasti: CC1=C(Cl)C(=O)N(c2cc(C(C)(C)C)ncn2)C1O (centres unmarked) [CF2]
5

Tell me its ABUTH damage score, application pre-emergence on Abutilon theophrasti: CCC(=O)OC1C(C)=C(Cl)C(=O)N1c1cc(C(F)(F)F)c(-c2cccc(C#N)c2)cn1 (centres unmarked) [AF94]
0

Tell me its ABUTH damage score, application pre-emergence on Abutilon theophrasti: COC1=C(C)C(O)N(c2ccc(C(=O)NC(C)(C)C)nn2)C1=O (centres unmarked) [BI6]
5

Tell me its ABUTH damage score, application pre-emergence on Abutilon theophrasti: COC1=C(C)C(O)N(c2cc(C(C)(F)F)ncn2)C1=O (centres unmarked) [CI8]
5

Tell me its ABUTH damage score, application pre-emergence on Abutilon theophrasti: CC1=C(Cl)C(=O)N(c2cc(C(F)(F)F)c(C(=O)OC(C)C)cn2)C1O (centres unmarked) [AF92]
2

Tell me its ABUTH damage score, application pre-emergence on Abutilon theophrasti: CC1=C(Cl)C(=O)N(c2ncc(C#N)c(C(C)(C)C)n2)C1O (centres unmarked) [DF6]
2

Tell me its ABUTH damage score, application pre-emergence on Abutilon theophrasti: COC1=C(C)C(O)N(c2cc(C(C)(C)F)c(Cl)nn2)C1=O (centres unmarked) [BI14]
3

Tell me its ABUTH damage score, application pre-emergence on Abutilon theophrasti: CCO/C=C\c1cnc(N2C(=O)C(Cl)=C(C)C2O)cc1C(F)(F)F (centres unmarked) [AF1]
1

Tell me its ABUTH damage score, application pre-emergence on Abutilon theophrasti: CC1=C(Cl)C(=O)N(c2ccc(C#N)nn2)C1O (centres unmarked) [BF14]
5

Tell me its ABUTH damage score, application pre-emergence on Abutilon theophrasti: COC(=O)c1cnc(N2C(=O)C(Cl)=C(C)C2O)cc1C(F)(F)F (centres unmarked) [AF42]
0

Tell me its ABUTH damage score, application pre-emergence on Abutilon theophrasti: COC1=C(C)C(O)N(c2cc(C(C)(C)C)ccn2)C1=O (centres unmarked) [AI4]
4

Tell me its ABUTH damage score, application pre-emergence on Abutilon theophrasti: CC(=O)c1ccnc(N2C(=O)C(Cl)=C(C)C2O)c1 (centres unmarked) [AF30]
3

Tell me its ABUTH damage score, application pre-emergence on Abutilon theophrasti: COC1=C(C)C(O)N(c2cc(C(F)(F)F)c(C(=O)N(C)C)cn2)C1=O (centres unmarked) [AI11]
5

Tell me its ABUTH damage score, application pre-emergence on Abutilon theophrasti: CC#Cc1nnc(N2C(=O)C(OC)=C(C)C2O)cc1C(C)(C)F (centres unmarked) [BI12]
4

Tell me its ABUTH damage score, application pre-emergence on Abutilon theophrasti: CC1=C(Cl)C(=O)N(c2nccc(C(F)(F)F)n2)C1O (centres unmarked) [DF1]
4

Tell me its ABUTH damage score, application pre-emergence on Abutilon theophrasti: COC1=C(C)C(O)N(c2cc(C(F)(F)F)c(C(=O)N(C)OC)cn2)C1=O (centres unmarked) [AI12]
5

----------
system: Alopecurus myosuroides; assay: Pre-emergence herbicidal activity, glasshouse pot test; type: in vivo; settings: pre-emergence spray, rate 1000 g/ha, evaluated after 13 days, scale 0-5
attribute measured: ALOMY damage score, application pre-emergence
Please give only the number in your answer, with no unit.

Tell me its ALOMY damage score, application pre-emergence on Alopecurus myosuroides: COC1=C(OC)C(O)N(c2cc(C)c(OC)nn2)C1=O (stereo not shown) [BK1]
4

More entries:
Tell me its ALOMY damage score, application pre-emergence on Alopecurus myosuroides: CC1=C(Cl)C(=O)N(c2cc(C(C)(F)F)c(Cl)nn2)C1O (stereo not shown) [BF12]
3

Tell me its ALOMY damage score, application pre-emergence on Alopecurus myosuroides: COC1=C(C)C(O)N(c2ccc(C(=O)NC(C)(C)C)cn2)C1=O (stereo not shown) [AI24]
3

Tell me its ALOMY damage score, application pre-emergence on Alopecurus myosuroides: CC1=C(Cl)C(=O)N(c2nccc(C(C)(C)C#N)n2)C1O (stereo not shown) [DF5]
4

Tell me its ALOMY damage score, application pre-emergence on Alopecurus myosuroides: COc1nnc(N2C(=O)C(Cl)=C(C)C2O)cc1C (stereo not shown) [BF6]
3

----------
Catalogue of compounds with associated SETFA herbicidal damage score
test system: Setaria faberi; test: Post-emergence herbicidal activity, glasshouse pot test; assay type: in vivo; set-up: key: 0 = no damage to plant, 5 = total damage to plant; conditions: Application post-emergence, rate 1000 g/ha, evaluated after 13 days

Give reported SETFA herbicidal damage score value for COC1=C(C)C(O)N(c2cc(C(C)C)c(C(=O)NC(C)(C)C)cn2)C1=O (stereo not shown) [AI30]
5

Give reported SETFA herbicidal damage score value for COC1=C(C)C(O)N(c2cc(C)c(Br)cn2)C1=O (stereo not shown) [AI32]
5

Give reported SETFA herbicidal damage score value for CC1=C(Cl)C(=O)N(c2cc(OC(F)(F)F)ccn2)C1O (stereo not shown) [AF74]
5

Give reported SETFA herbicidal damage score value for COC1=C(OC)C(O)N(c2cc(C(F)(F)F)c(C(F)(F)F)cn2)C1=O (stereo not shown) [AK4]
3

Give reported SETFA herbicidal damage score value for CCC(C)(C)NC(=O)c1cnc(N2C(=O)C(OC)=C(C)C2O)cc1C (stereo not shown) [AI35]
5

Give reported SETFA herbicidal damage score value for CC1=C(Cl)C(=O)N(c2ccc(S(C)(=O)=O)cn2)C1O (stereo not shown) [AF54]
1

More entries:
Give reported SETFA herbicidal damage score value for COC1=C(C)C(O)N(c2cc(C)c(OC)nn2)C1=O (stereo not shown) [BG1]
5

Give reported SETFA herbicidal damage score value for CC1=C(Cl)C(=O)N(c2cc(C3CC3)ncn2)C1O (stereo not shown) [CF4]
5

Give reported SETFA herbicidal damage score value for CC1=C(Cl)C(=O)N(c2ncc(C(F)(F)F)cc2F)C1O (stereo not shown) [AF63]
1

Give reported SETFA herbicidal damage score value for CCC1=C(Br)C(=O)N(c2cc(C(C)(C)C#N)ncn2)C1O (stereo not shown) [CG2]
5

----------
test system: Abutilon theophrasti; experiment: Pre-emergence herbicidal activity, glasshouse pot test; type: in vivo; settings: pre-emergence spray, rate 1000 g/ha, evaluated after 13 days, scale 0-5
Quick rule: ABUTH damage score, application pre-emergence of at least 4 means TRUE, below that means FALSE.

Example entries begin here.
hey, is ABUTH damage score, application pre-emergence for this one >= 4? CCOC(=O)c1cnc(N2C(=O)C(OC)=C(C)C2O)cc1Cl (stereo not drawn) [AI19]
FALSE

hey, is ABUTH damage score, application pre-emergence for this one >= 4? CC1=C(Cl)C(=O)N(c2cc(C(F)(F)F)c(-c3ccc(Cl)cc3)cn2)C1O (stereo not drawn) [AF87]
FALSE

hey, is ABUTH damage score, application pre-emergence for this one >= 4? CC1=C(Cl)C(=O)N(c2ccc([S+](C)[O-])cn2)C1O (stereo not drawn) [AF53]
FALSE

hey, is ABUTH damage score, application pre-emergence for this one >= 4? CCc1cc(N2C(=O)C(Cl)=C(C)C2O)nnc1Cl (stereo not drawn) [BF13]
FALSE

hey, is ABUTH damage score, application pre-emergence for this one >= 4? COC1=C(C)C(O)N(c2cc(C(C)(F)F)c(-c3cccnc3)nn2)C1=O (stereo not drawn) [BI21]
FALSE

hey, is ABUTH damage score, application pre-emergence for this one >= 4? COC1=C(C)C(O)N(c2cc(C(C)(C)F)ncn2)C1=O (stereo not drawn) [CI7]
TRUE

Turning now to a further record.
hey, is ABUTH damage score, application pre-emergence for this one >= 4? CCc1cc(N2C(=O)C(OC)=C(C)C2O)ncc1Br (stereo not drawn) [AI22]
FALSE
